Measured pEC50, listed per entry.
target: T1, human ROR1 (full-length, on the cell surface) (human, UniProt Q01973 30-937); test: flow cytometry, Ba/F3-ROR1 cells
T1 construct: whole, on cells; the tumour cell lines carry their own ROR1; also called Ba/F3-ROR1 cells; Jeko-1
T1 sequence (Q01973 30-937): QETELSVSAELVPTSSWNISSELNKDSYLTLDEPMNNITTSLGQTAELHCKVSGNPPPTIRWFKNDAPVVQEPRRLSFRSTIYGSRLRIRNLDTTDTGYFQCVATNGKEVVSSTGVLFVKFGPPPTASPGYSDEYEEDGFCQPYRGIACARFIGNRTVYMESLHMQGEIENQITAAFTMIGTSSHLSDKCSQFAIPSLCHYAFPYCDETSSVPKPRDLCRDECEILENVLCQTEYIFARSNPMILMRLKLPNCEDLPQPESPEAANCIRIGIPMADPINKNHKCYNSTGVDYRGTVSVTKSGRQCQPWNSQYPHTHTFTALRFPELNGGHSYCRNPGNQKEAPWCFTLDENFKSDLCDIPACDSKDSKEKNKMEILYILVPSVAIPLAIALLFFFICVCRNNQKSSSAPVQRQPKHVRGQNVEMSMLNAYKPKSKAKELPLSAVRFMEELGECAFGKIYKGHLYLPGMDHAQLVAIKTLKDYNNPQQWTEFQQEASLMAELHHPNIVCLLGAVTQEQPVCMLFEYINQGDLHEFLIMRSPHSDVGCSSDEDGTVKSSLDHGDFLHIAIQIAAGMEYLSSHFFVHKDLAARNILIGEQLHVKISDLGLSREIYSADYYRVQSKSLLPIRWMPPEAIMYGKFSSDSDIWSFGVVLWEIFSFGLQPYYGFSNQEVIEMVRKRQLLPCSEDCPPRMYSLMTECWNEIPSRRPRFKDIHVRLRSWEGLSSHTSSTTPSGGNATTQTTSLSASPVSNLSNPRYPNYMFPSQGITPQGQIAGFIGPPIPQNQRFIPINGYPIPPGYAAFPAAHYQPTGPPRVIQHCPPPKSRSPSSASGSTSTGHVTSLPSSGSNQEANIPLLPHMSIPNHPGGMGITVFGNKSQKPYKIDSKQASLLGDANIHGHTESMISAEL
pEC50: −log10 of the molar value.
Metric: pEC50

1. 19F6-Hu35V10 (antibody, human IgG1, kappa, V domains shown, humanized, human IgG1 / kappa) VH: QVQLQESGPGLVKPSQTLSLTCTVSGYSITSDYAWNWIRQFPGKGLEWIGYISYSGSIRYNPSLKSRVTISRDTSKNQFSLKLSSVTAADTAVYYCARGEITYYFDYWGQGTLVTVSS VL: ETTLTQSPAFMSATPGDKVTISCKASTDIDSDMNWYQQKPGKPPKLIISEGNTLRPGIPPRFSSSGYGTDFTFTIRKIESEDAADYYCLQSNDLPLTFGQGTKLEIKR ... 9.57
2. 19F6-Hu35V7 (antibody, human IgG1, kappa, V domains shown, humanized, human IgG1 / kappa) VH: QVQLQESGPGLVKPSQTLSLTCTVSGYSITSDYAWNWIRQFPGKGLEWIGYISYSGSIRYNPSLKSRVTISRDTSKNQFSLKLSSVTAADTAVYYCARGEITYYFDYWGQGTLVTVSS VL: ETTLTQSPAFMSATPGDKVTISCKASTSIDDDMNWYQQKPGKPPKLIISEGNTLRPGIPPRFSSSGYGTDFTFTINNIQSEDAATYYCLQSNDLPLTFGQGTKLEIKR ... 9.72
3. 19F6-Hu11 (antibody, human IgG1, kappa, V domains shown, humanized, human IgG1 / kappa) VH: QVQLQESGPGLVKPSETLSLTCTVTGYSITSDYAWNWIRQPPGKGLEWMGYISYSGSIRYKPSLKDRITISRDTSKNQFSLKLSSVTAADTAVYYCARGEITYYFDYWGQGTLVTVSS VL: DIQMTQSPSSLSASVGDRVTITCITTTDIDDDMNWYQQKPGKAPKLLISEGNTLRPGVPSRFSGSGYGTDFTLTISSLQPEDFATYYCLQSNDLPLTFGQGTKLEIKR ... 9.60
4. 19F6-Hu35V1 (antibody, human IgG1, kappa, V domains shown, humanized, human IgG1 / kappa) VH: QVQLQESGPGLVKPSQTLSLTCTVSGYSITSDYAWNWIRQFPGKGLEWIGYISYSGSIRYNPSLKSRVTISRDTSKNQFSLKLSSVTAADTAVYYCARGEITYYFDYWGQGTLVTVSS VL: ETTLTQSPAFMSATPGDKVTISCKASTSIDDDMNWYQQKPGEPPKLIISEGNTLRPGIPPRFSSSGYGTDFTFTINKIKSEDAATYYCLQSNDLPLTFGQGTKLEIKR ... 9.77

All figures here come from patent US20240018237A1.
